# System: HIPK3;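 further: KINOMEscan kinase panel screen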
# conditions: concentration: 1 μM, replicates: in singlicate; n = 1
The label is 1 for %Inh below 20% and -1 for %Inh equal to or exceeding 20%.

These recorded examples may help you get a feel for the data.
In [3]: df
Out[3]:
                                   molecule  study_system  cat
0  Cl.Cl.NCC(NC(=O)c1cc(-c2cccnc2)c(-c2ccnc3[nH]ccc23)s1)c1ccccc1 (stereo not shown)         HIPK3   -1
1  O=C(Nc1n[nH]c2nc(-c3cccc(O)c3)ccc12)C1CC1         HIPK3   -1
2  CC(C)c1nc(-c2ccc(F)c(NS(=O)(=O)c3c(F)cccc3F)c2)c(-c2ccnc(Nc3ccc(N4CCOCC4)nc3)n2)s1         HIPK3   -1
3  Cn1cc(-c2ccc3c(c2)CCN3C(=O)Cc2cc(F)cc(F)c2F)c2c(N)ncnc21         HIPK3    1

Request: Please determine if Cc1ccc(O)cc1Nc1ccnc2cc(-c3ccc(CN4CCCCC4)o3)ccc12 is below 20% in terms of %Inh.
Response: 1

Request: Please determine if CN(c1ccc2c(c1)nc(NCc1ccccc1)n2C)c1ccnc(Nc2ccc(CS(C)(=O)=O)cc2)n1.Cl is below 20% in terms of %Inh.
Response: 1

Request: Please determine if COC(=O)Nc1nc2cc(Oc3ccc(NC(=O)Nc4cccc(SC)c4)cc3)ccc2[nH]1.Cl is below 20% in terms of %Inh.
Response: 1

Entry source: paper PMC5540273
